Reported IC50 against Poly [ADP-ribose] polymerase tankyrase-1 (Homo sapiens), gathered from multiple publications, appears below.

COMPOUND: COc1ccc(-c2n[nH]nc2C2NC(=O)c3ccccc3N2C)cc1 (stereo not shown)
IC50: < 0.02 µM
//
COMPOUND: Cc1ccc(-c2cc3c(C(F)(F)F)cccc3c(=O)[nH]2)cc1
IC50: 0.3 to 3 µM
//
COMPOUND: CC(C)(C)NCC1CN(C(=O)c2cc(Cc3n[nH]c(=O)c4ccccc34)ccc2F)C1
IC50: > 1 µM
//
COMPOUND: Cc1cccc2c1NC(c1c[nH]nc1-c1ccc(OCC(F)(F)F)cc1)NC2=O (stereo not shown)
IC50: 0.005 to 0.02 µM
//
COMPOUND: COc1ccc(-c2n[nH]nc2C2NC(=O)c3cccc4c3N2CCO4)cc1 (stereo not shown)
IC50: 0.005 to 0.02 µM
//
COMPOUND: CCN1c2ccccc2C(=O)NC1c1c[nH]nc1-c1ccc(OC)cc1 (stereo not shown)
IC50: 0.02 to 0.05 µM
//
COMPOUND: CN1c2ccccc2C(=O)NC1c1c[nH]nc1-c1cccc(-c2ccccc2)c1 (stereo not shown)
IC50: < 0.005 µM
//
COMPOUND: Cc1cccc2c1NC(c1n[nH]nc1-c1ccc(OC(C)C)cc1)NC2=O (stereo not shown)
IC50: 0.02 to 0.05 µM
//
COMPOUND: CN1CCN(Cc2ccc(-c3cccc(-c4n[nH]cc4C4NC(=O)c5ccccc5N4C)c3)cc2)CC1 (stereo not shown)
IC50: 0.02 to 0.05 µM
//
COMPOUND: Cc1cccc2c1NC(c1n[nH]nc1-c1ccc(OCC(F)(F)F)cc1)NC2=O (stereo not shown)
IC50: 0.005 to 0.02 µM
